Molecular target: human CB1 receptors (Homo sapiens, UniProt P21554)
Sequence (P21554 whole entry): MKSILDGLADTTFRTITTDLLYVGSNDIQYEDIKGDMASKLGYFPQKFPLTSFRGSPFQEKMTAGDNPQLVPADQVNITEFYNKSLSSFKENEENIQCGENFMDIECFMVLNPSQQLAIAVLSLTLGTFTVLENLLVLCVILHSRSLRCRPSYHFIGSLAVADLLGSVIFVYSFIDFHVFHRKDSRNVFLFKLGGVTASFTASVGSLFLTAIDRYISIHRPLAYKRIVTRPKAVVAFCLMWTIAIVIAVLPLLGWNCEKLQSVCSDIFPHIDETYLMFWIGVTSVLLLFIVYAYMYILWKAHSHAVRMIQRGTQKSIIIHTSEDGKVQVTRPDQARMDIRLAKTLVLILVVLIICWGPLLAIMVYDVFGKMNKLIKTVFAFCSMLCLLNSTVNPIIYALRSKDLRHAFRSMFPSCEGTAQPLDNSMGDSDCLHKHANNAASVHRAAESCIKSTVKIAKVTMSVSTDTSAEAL
Assay: functional cAMP assay, CHO cells expressing human CB1
Recorded EC50 by entry

{"columns": ["MOLECULE", "EC50"],
 "data": [
  ["CC(C)(C)c1nc(-c2ccc(C3CC3)c(OCC(F)(F)F)c2)no1", "> 10 µM"],
  ["Cc1nc(C(NC(=O)c2ccc(C3CC3)c(OC(C)C)c2)C2(C)COC2)no1 (stereo not drawn)", "> 10 µM"],
  ["CC(C)Oc1cc(C(=O)N[C@](C)(CC(N)=O)C2CC2)ccc1C1CC1", "1.09 µM"],
  ["C[C@](CC(N)=O)(NC(=O)c1ccc(C2CC2)c(OCCF)c1)C1CC1", "> 10 µM"],
  ["CC(C)Oc1cc(C(=O)N[C@@](C)(CC(N)=O)C2CC2)ccc1C1CC1", "> 10 µM"],
  ["Cc1nc([C@@](C)(CC2CC2)NC(=O)c2ccc(C3CC3)c(OC(C)C)c2)no1", "> 10 µM"]
]}

----------
Molecular target: human CB2 receptors (Homo sapiens)
Construct: expressed in transfected cells; host or cells: CHO cells
Assay: functional cAMP assay, CHO cells expressing human CB2
Format: cell-based
pEC50: −log10 of the molar value.
Recorded pEC50 by entry
ASSAY_ENDPOINT: pEC50

{"columns": ["COMPOUND", "SUBJECT_OF_TEST", "ASSAY_ENDPOINT", "RESULT_VALUE"],
 "data": [
  ["NC(=O)C1CC2(CC2)CN1C(=O)c1ccc(C2CC2)c(OCC2CC2)c1 (stereo not drawn) [Example 22]", "human CB2 receptors (Homo sapiens)", "pEC50", 7.55],
  ["CC(C)(NC(=O)c1ccc(N2CC(F)(F)C2)c(OCC2CC2)c1)c1noc(N)n1 [Example 11]", "human CB2 receptors (Homo sapiens)", "pEC50", 7.01],
  ["Cc1nc([C@@](C)(CC2CC2)NC(=O)c2ccc(C3CC3)c(OCCF)c2)no1 [Example 33]", "human CB2 receptors (Homo sapiens)", "pEC50", 7.23]
]}

----------
Molecular target: human CB2 receptors (Homo sapiens, UniProt P34972)
Construct: expressed in transfected cells; host or cells: CHO cells
Sequence (P34972 whole entry): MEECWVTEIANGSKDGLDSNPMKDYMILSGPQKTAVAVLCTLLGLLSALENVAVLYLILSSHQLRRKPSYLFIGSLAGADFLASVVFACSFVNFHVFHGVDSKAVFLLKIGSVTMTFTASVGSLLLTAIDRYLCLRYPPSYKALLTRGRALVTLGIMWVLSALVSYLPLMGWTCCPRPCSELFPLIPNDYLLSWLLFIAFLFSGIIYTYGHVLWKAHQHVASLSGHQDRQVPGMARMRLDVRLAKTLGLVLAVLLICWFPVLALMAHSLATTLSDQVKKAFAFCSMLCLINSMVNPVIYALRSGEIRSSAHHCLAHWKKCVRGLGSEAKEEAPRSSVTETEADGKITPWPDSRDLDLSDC
Test: functional cAMP assay, CHO cells expressing human CB2
Format: cell-based
Settings: functional cAMP assay, CHO cells expressing human CB2; read-out: Human CB2 EC50
pEC50: −log10 of the molar value.
Recorded pEC50 by entry
ASSAY_ENDPOINT: pEC50

{"columns": ["COMPOUND", "SUBJECT_OF_TEST", "RESULT_VALUE"],
 "data": [
  ["Cc1ccc(C(=O)N[C@@H](CC(C)C)C(N)=O)cc1OCC1CC1 [Example 1]", "human CB2 receptors (Homo sapiens, UniProt P34972)", 6.87],
  ["Cc1nc(C(C)(C)NC(=O)c2ccc(C3CC3)c(OCC3CC3)c2)no1 [Example 3]", "human CB2 receptors (Homo sapiens, UniProt P34972)", 6.91],
  ["CNC(=O)[C@@H](NC(=O)c1ccc(C2CC2)c(-c2ccnn2C)c1)C(C)(C)C [Example 56]", "human CB2 receptors (Homo sapiens, UniProt P34972)", 6.85],
  ["Cc1nc([C@](C)(CC2CC2)NC(=O)c2ccc(C3CC3)c(-c3ccnn3C)c2)no1 [Example 59]", "human CB2 receptors (Homo sapiens, UniProt P34972)", 6.55],
  ["Cc1nc(C(C)(C)NC(=O)c2ccc(C)c(OCC3CC3)c2)no1 [Example 2]", "human CB2 receptors (Homo sapiens, UniProt P34972)", 6.31],
  ["CC(C)Oc1cc(C(=O)N2CC(F)(F)C[C@H]2C(N)=O)ccc1C1CC1 [Example 48]", "human CB2 receptors (Homo sapiens, UniProt P34972)", 6.42],
  ["NC(=O)[C@@H]1CC(F)(F)CN1C(=O)c1ccc(C2CC2)c(-c2ccc(F)nc2)c1 [Example 57]", "human CB2 receptors (Homo sapiens, UniProt P34972)", 6.56],
  ["NC(=O)[C@@H]1CC(F)(F)CN1C(=O)c1ccc(C2CC2)c(OCC(F)(F)F)c1 [Example 42]", "human CB2 receptors (Homo sapiens, UniProt P34972)", 6.87]
]}
